Data provenance: ChEMBL document CHEMBL1159165

# assayInfo: Compound was evaluated for inhibitory activity against herpes simplex type 2 protease (HSV-2 pr) at dose of 10 uM
# measurementContext: Human alphaherpesvirus 2
measuredQuantity: inhibition (%)

Before answering, review these 3 worked examples.
CC(=O)ON1C(=O)/C(=C/c2ccccc2)N=C1c1ccccc1 | 14
COc1ccc(S(=O)(=O)ON2C(=O)/C(=C/c3ccccc3)N=C2c2ccccc2)cc1 | 20
CCOP(=O)(OCC)ON1C(=O)/C(=C/c2ccccc2)N=C1c1ccccc1 | 5

P. O=C1OC(c2ccccc2)=NC12CC2
Q. O=C1OC(c2ccccc2)=N[C@@]12C[C@H]2c1ccccc1
Inquiry: Could you tell me which of these two has the smaller inhibition figure? First: P Second: Q State your choice using its label.
Reply text: Q
(Q: 24%, P: 71%)
